molecular target: Ribosomal protein S6 kinase alpha-2 (Homo sapiens) (UniProt Q15349); settings: at 10 µM
Sequence (Q15349 whole entry): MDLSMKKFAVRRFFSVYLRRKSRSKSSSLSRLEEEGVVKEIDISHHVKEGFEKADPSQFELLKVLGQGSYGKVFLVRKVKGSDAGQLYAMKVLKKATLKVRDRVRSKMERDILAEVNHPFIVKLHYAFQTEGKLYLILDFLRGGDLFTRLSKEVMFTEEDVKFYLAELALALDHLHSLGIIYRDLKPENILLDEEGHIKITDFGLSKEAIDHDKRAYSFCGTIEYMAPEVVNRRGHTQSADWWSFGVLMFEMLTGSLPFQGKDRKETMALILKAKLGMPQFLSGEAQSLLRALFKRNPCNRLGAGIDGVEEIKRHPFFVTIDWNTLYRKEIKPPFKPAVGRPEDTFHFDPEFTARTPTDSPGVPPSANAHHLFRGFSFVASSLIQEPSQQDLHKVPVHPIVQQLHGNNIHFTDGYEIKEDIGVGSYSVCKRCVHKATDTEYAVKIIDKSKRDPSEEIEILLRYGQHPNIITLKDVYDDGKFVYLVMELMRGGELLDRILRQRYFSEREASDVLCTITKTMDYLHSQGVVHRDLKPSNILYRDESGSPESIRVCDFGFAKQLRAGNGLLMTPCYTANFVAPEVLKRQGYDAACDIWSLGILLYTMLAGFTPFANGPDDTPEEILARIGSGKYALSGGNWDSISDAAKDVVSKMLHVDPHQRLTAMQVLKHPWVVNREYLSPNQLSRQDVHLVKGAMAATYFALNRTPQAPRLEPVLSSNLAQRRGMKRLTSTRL
readout_type: residual activity (%)
Answer format: numeric, % implied, no suffix.

[
  {
    "smiles_text": "c1cc(-c2cnn3cc(-c4ccc(OCCN5CCCCC5)cc4)cnc23)ccn1",
    "residual activity (%)": 50
  },
  {
    "smiles_text": "COc1ccc2c(c[n+](C)c3c4cc5c(cc4ccc23)OCO5)c1OC",
    "residual activity (%)": 93
  },
  {
    "smiles_text": "COC(=O)[C@@]1(O)C[C@H]2O[C@]1(C)n1c3ccccc3c3c4c(c5c6ccccc6n2c5c31)C(=O)NC4",
    "residual activity (%)": 1
  },
  {
    "smiles_text": "O=C1c2ccccc2-c2nc3nnnn3nc21",
    "residual activity (%)": 106
  }
]

Alright, here's another compound for you.
[in] Recorded residual activity for CC(C)(C)c1cc(C=C(C#N)C#N)cc(Br)c1O , please?
[out] 82

###

target: Serine/threonine-protein kinase D1 (Homo sapiens); conditions: at 1 µM
Parameter: residual activity. Scope: all listed entries.
Give just the numeric value; % need not be written.

[
  {
    "smiles_text": "CC(C)(C)c1cc(C=C(C#N)C#N)cc(Br)c1O",
    "measurement": 98
  },
  {
    "smiles_text": "CC(C)[C@H](CO)Nc1nc(Nc2cccc(Cl)c2)c2ncn(C(C)C)c2n1",
    "measurement": 81
  },
  {
    "smiles_text": "CCn1cnc2c(Nc3cccc(Cl)c3)nc(N[C@@H]3CCCC[C@@H]3N)nc21",
    "measurement": 97
  },
  {
    "smiles_text": "O=C1c2ccccc2-c2nc3nnnn3nc21",
    "measurement": 104
  },
  {
    "smiles_text": "O=[N+]([O-])/C=C/c1ccc2c(c1)OCO2",
    "measurement": 91
  }
]

[in] Please look up its residual activity: COc1cc(OC)c(/C=C2\C(=O)Nc3ccccc32)c(OC)c1
[out] 84

###

The compounds listed here are annotated with their residual activity.
biological target: Serine/threonine-protein kinase VRK2 (Homo sapiens); conditions: at 1 µM;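 also: remaining VRK2 kinase activity expressed as percent of uninhibited control, measured in MOPS buffer at pH 7.0 containing EDTA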
Description: Millipore: Percentage of residual kinase activity of VRK2 at 1uM relative to control. Control inhibitor: Phosphoric acid* at 0.3uM. Buffer: 8 mM MOPS pH 7.0, 0.2 mM EDTA
Quick note: give the figure in %, leave out the unit.

Example results:
[
  {
    "smiles_text": "O=c1[nH]c2ccccc2n1C1CCN(Cc2ccc(-c3nc4cc5[nH]cnc5cc4nc3-c3ccccc3)cc2)CC1",
    "residual activity / %": 109
  },
  {
    "smiles_text": "CN[C@@H]1C[C@H]2O[C@@](C)([C@@H]1OC)n1c3ccccc3c3c4c(c5c6ccccc6n2c5c31)C(=O)NC4",
    "residual activity / %": 108
  },
  {
    "smiles_text": "CC(C)[C@H](CO)Nc1nc(Nc2cccc(Cl)c2)c2ncn(C(C)C)c2n1",
    "residual activity / %": 85
  },
  {
    "smiles_text": "O=C1Nc2ccc3ncsc3c2/C1=C/c1c[nH]cn1",
    "residual activity / %": 75
  }
]

As a next step, examine the compound that follows.
[in] I have this compound here, COc1ccc2c(c[n+](C)c3c4cc5c(cc4ccc23)OCO5)c1OC , and I need its recorded residual activity.
[out] 110

###

target: Insulin-like growth factor 1 receptor (Homo sapiens) (UniProt P08069); conditions: at 10 µM
Sequence (P08069 31-736 limits assumed): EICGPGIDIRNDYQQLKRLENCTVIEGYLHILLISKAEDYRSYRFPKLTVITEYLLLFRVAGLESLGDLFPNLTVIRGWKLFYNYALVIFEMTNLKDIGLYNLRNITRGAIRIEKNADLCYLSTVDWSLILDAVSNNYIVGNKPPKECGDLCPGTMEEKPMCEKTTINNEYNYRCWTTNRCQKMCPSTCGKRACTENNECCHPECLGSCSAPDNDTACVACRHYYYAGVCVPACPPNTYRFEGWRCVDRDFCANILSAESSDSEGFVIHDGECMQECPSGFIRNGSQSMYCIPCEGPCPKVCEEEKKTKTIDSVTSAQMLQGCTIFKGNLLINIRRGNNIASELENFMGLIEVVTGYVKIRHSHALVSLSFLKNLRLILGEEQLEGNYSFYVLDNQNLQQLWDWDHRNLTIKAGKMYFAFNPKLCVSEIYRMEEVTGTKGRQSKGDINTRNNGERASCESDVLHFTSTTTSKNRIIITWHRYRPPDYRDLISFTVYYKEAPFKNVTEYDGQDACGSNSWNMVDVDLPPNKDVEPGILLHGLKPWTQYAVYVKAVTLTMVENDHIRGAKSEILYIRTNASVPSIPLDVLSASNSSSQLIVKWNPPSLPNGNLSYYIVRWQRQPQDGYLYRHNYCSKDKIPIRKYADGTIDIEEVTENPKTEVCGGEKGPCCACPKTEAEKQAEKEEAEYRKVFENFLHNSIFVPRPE
Sequence (P08069 741-1367 limits assumed): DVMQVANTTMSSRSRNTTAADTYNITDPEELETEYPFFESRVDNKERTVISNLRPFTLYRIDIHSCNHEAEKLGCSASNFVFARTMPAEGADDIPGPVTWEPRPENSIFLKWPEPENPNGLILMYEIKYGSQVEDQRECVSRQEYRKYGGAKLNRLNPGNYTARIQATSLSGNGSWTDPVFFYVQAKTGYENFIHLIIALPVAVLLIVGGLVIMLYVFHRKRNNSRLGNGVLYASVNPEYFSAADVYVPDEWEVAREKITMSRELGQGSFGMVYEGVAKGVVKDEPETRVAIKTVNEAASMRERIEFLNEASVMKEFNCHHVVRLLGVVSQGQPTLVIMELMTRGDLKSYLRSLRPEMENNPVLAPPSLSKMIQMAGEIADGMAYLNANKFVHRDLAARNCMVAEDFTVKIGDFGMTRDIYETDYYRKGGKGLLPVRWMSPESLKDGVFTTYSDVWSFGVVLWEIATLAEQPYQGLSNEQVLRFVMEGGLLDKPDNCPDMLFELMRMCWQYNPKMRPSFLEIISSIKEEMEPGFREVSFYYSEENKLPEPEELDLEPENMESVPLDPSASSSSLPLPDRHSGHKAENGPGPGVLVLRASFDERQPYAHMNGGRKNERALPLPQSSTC
readout_type: residual activity (%)
Express the result in % but write the number alone.

Worked examples, 3 compounds total:
[
  {
    "compound": "O=c1[nH]c2ccccc2n1C1CCN(Cc2ccc(-c3nc4cc5[nH]cnc5cc4nc3-c3ccccc3)cc2)CC1",
    "units_text": "%",
    "residual activity": 39
  },
  {
    "compound": "O=C1c2ccccc2-c2nc3nnnn3nc21",
    "units_text": "%",
    "residual activity": 83
  },
  {
    "compound": "CC(C)(C)c1cc(C=C(C#N)C#N)cc(Br)c1O",
    "units_text": "%",
    "residual activity": 101
  }
]

[in] Look at this compound and give its reported residual activity. COc1ccc2c(c1)/C(=C/c1cnc[nH]1)C(=O)N2
[out] 128

[in] What value of residual activity has been reported for the following compound? COC(=O)[C@@]1(O)C[C@H]2O[C@]1(C)n1c3ccccc3c3c4c(c5c6ccccc6n2c5c31)C(=O)NC4
[out] 14

[in] For the compound c1cc(-c2cnn3cc(-c4ccc(OCCN5CCCCC5)cc4)cnc23)ccn1 , what residual activity is on record?
[out] 143

[in] What residual activity value was documented for this compound, N/C(=N\[N+](=O)[O-])N/N=C\c1ccc(-c2cccc([N+](=O)[O-])c2)o1 ?
[out] 76

###

target: Serine/threonine-protein kinase Sgk3 (Homo sapiens) (UniProt Q96BR1); settings: at 1 µM
Sequence (Q96BR1 whole entry): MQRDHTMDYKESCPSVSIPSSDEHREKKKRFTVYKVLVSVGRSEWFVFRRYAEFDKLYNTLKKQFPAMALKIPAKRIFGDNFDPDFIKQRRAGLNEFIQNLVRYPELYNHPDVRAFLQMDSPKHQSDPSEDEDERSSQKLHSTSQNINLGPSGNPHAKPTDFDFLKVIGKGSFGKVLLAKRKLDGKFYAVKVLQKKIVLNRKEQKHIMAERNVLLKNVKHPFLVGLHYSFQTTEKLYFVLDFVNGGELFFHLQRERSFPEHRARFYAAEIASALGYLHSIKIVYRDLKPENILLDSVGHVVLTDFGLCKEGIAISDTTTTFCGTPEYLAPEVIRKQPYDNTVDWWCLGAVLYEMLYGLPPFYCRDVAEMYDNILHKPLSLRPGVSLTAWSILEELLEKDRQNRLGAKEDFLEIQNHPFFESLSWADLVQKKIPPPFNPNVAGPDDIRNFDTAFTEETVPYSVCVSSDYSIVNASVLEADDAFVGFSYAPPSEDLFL
The entries below come with measured residual activity values attached.
For clarity, give the value followed by its unit.

Check out these entries, answers already filled in.
[
  {
    "smiles_text": "COc1cc2ncnc(N3CCN(C(=O)Nc4ccc(Oc5ccccc5)cc4)CC3)c2cc1OC",
    "tested_target": "Serine/threonine-protein kinase Sgk3 (Homo sapiens) (UniProt Q96BR1)",
    "measurement": "104%"
  },
  {
    "smiles_text": "CCc1nc(-c2ccc(OC)cc2)[nH]c1-c1ccncc1",
    "tested_target": "Serine/threonine-protein kinase Sgk3 (Homo sapiens) (UniProt Q96BR1)",
    "measurement": "115%"
  }
]

[in] So what does the record say about residual activity for Cc1cncc2cccc(S(=O)(=O)N3CCCN(C(=O)CN)C[C@H]3C)c12 ?
[out] 93%

[in] Any idea what its residual activity is? The compound is Oc1n[nH]c2nnc(-c3c(-c4ccccc4)nn4ccccc34)cc12
[out] 92%

[in] Can you share its residual activity? I mean this compound: Nc1ncnc2c1cnn2-c1ccccc1
[out] 94%

[in] Fill in the blank: the reported residual activity of Cc1cc(Nc2nc(-c3ccccc3)nc3ccccc23)n[nH]1 is ____.
[out] 107%

[in] Look at this compound and give its reported residual activity. COc1cc2ncnc(Nc3ccc(O)c(Br)c3)c2cc1OC
[out] 99%

[in] # input compound: COc1ccc(S(=O)(=O)N(CCO)c2ccccc2CN(C)C/C=C/c2ccc(Cl)cc2)cc1 ; wanted: its residual activity
[out] 98%

[in] Entry under review: Ic1cccc(CSc2nnc(-c3ccncc3)o2)c1 . Reported residual activity?
[out] 91%

[in] # query: residual activity of entry CN(C)c1ccc(/C=C2\C(=O)Nc3ccccc32)cc1
[out] 106%

[in] Give its residual activity value. Item: c1ccc(-c2n[nH]c3c2oc2ccccc23)cc1
[out] 94%

[in] # residual activity lookup, item Cc1ccc(NC2=CC(=O)c3sc(C)nc3C2=O)cc1
[out] 96%

###

molecular target: AMP-activated protein kinase, AMPK (Homo sapiens) (UniProt P54646+O43741+P54619+Q9UGJ0+Q9Y478+Q13131+Q9UGI9); conditions: at 10 µM
We label by threshold. Values of residual activity strictly beneath 80% are rule met. Values of 80% and up are rule not met.

As a guide, the following entries are already answered.
[
  {
    "molecule": "C[S+]([O-])c1ccc(-c2nc(-c3ccc(F)cc3)c(-c3ccncc3)[nH]2)cc1 (stereo not drawn)",
    "answer_label": "rule not met"
  },
  {
    "molecule": "CCn1cnc2c(Nc3cccc(Cl)c3)nc(N[C@@H]3CCCC[C@@H]3N)nc21",
    "answer_label": "rule met"
  },
  {
    "molecule": "COc1ccc2c(c[n+](C)c3c4cc5c(cc4ccc23)OCO5)c1OC",
    "answer_label": "rule met"
  },
  {
    "molecule": "N/C(=N\\[N+](=O)[O-])N/N=C\\c1ccc(-c2cccc([N+](=O)[O-])c2)o1",
    "answer_label": "rule not met"
  }
]

[in] In the record for COc1cc(OC)c(/C=C2\C(=O)Nc3ccccc32)c(OC)c1 , is residual activity less than 80%?
[out] rule not met

###

Target: Ephrin type-A receptor 3 (Homo sapiens) (UniProt P29320)
Sequence (whole entry): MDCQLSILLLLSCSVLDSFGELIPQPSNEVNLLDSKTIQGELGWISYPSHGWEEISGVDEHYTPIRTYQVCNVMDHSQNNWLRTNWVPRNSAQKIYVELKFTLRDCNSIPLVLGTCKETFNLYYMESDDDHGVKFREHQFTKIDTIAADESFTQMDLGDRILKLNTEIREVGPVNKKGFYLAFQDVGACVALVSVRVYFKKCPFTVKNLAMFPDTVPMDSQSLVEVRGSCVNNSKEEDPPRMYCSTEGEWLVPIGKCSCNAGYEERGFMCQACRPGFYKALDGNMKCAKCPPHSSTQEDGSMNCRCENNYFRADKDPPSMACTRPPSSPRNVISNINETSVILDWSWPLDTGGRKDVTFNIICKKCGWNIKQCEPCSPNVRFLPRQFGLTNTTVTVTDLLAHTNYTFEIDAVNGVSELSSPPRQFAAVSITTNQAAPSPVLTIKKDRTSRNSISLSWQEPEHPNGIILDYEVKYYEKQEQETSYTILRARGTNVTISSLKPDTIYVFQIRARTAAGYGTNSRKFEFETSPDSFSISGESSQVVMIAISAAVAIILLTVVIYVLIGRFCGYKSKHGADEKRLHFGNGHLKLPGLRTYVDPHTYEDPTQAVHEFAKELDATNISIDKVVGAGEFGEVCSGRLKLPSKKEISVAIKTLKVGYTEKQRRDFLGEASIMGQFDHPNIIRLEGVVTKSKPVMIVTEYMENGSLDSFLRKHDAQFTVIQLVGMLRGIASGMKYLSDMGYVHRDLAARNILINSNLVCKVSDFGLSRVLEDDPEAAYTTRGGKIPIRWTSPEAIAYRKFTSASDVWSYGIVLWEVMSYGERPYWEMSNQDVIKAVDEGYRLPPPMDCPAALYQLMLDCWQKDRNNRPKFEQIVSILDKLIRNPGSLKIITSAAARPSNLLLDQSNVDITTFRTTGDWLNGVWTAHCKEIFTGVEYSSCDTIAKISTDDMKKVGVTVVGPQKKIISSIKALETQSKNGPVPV
Details: at 1 µM
readout_type: residual activity (%)
Give the value, in units of %, as a plain number.

[
  {
    "smiles_text": "CC(C)(C)c1cc(C=C(C#N)C#N)cc(Br)c1O",
    "residual activity / %": 122
  },
  {
    "smiles_text": "COc1cc(OC)c(/C=C2\\C(=O)Nc3ccccc32)c(OC)c1",
    "residual activity / %": 97
  },
  {
    "smiles_text": "COC(=O)[C@@]1(O)C[C@H]2O[C@]1(C)n1c3ccccc3c3c4c(c5c6ccccc6n2c5c31)C(=O)NC4",
    "residual activity / %": 42
  },
  {
    "smiles_text": "CCn1cnc2c(Nc3cccc(Cl)c3)nc(N[C@@H]3CCCC[C@@H]3N)nc21",
    "residual activity / %": 61
  }
]

Attention now shifts to the item below.
[in] Name the reported residual activity value associated with the compound O=C1Nc2ccc3ncsc3c2/C1=C/c1c[nH]cn1
[out] 82

Source listed as ChEMBL document CHEMBL2218924.
